Form field: inhibition (one value per entry).
# protocol text: M. tuberculosis growth inhibition, HTS (AID 449762);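 also: bacterial growth assessed after seven days of incubation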
# cond: M. tuberculosis H37Rv growth inhibition, 7H9 media; at 25 µM; active compounds read high
Screen size: about 330,000 compounds; about 1,900 (0.58%) were called active. Roughly 4% stayed inconclusive and do not appear here. Only a sample is shown. Entries with a potency or affinity are not part of this list.
Report as a plain number; the unit % is understood.

Below, each entry is followed by its recorded inhibition result.
Qu. What measured inhibition goes with "CN(c1ccccc1)c1nc(-n2ccnc2)nc(-n2ccnc2)n1" ?
Ans. 5.05

Qu. Find the recorded inhibition belonging to "CCCCNc1nc(-c2ccccc2)nc(-n2ccnc2)n1" and report it.
Ans. 10

Qu. Data request, read-out inhibition, for "O=C(Nc1ccccc1)C1=C[C@H](C2CCCCC2)C[C@H](OCc2ccc(CO)cc2)O1"
Ans. 8.7

Continuing:
Qu. Suppose we examine the compound "COc1ccc(OC)c(S(=O)(=O)N2CCC(C(=O)Nc3cc(C)ccc3C)CC2)c1" ; what inhibition value has been reported?
Ans. -10.6

Qu. Give its inhibition value. Item: "CCOc1ccccc1/C=N/Nc1ccc(Cl)nn1"
Ans. 13.2
